Assay: Blood drug concentration analysis (LC-MS/MS) in In Vivo Depletion Assay
Details: human CCR2 (hCCR2) knock-in, 057 background, mouse, whole blood, hCCR2 knock-in mice, IV 0.1 mpk compound + 10 mpk anti-cotinine antibody, 48 hours post-dose, read-out: Exposure of Compound of Formula (I) 48 hours post-dose
endpoint.label: concentration at 48 h
Put your answer as a value accompanied by its unit after it.

INSERT INTO results (compound, endpoint_label, reported) VALUES
  ('CO[C@@H]1COCC[C@@H]1N[C@@H]1CC[C@@](C(=O)N2CCc3nc(CCCCNC(=O)[C@H]4CC[C@H](NC(=O)CCCO[C@H]5CC[C@H](OCCNC(=O)[C@H]6CC(=O)N(C)[C@@H]6c6cccnc6)CC5)CC4)c(C(F)(F)F)cc3C2)(C(C)C)C1 [Example 12]', 'concentration at 48 h', '33.3 ng/mL');

Req: Please indicate concentration at 48 h recorded for CO[C@@H]1COCC[C@@H]1N[C@@H]1CC[C@](CCNC(=O)[C@H]2CC[C@H](NC(=O)CCCO[C@H]3CC[C@H](OCCNC(=O)[C@H]4CC(=O)N(C)[C@@H]4c4cccnc4)CC3)CC2)(C(=O)N2CCc3ncc(C(F)(F)F)cc3C2)C1 [Example 8]
Resp: 74.9 ng/mL

All values here come from patent US20250154288A1.
